Experiment: in vivo
Settings: female, New Zealand white, rabbit, in vivo, iv, Serum concentration
Please go through the items and note down their concentration at 671.96 h.
One number for each entry, in nM.

- Molecular string: "Clc1c(Cl)c(Cl)c(Cl)c(Cl)c1Cl"
  concentration at 671.96 h, nM: 2.3

The compound ClC(Cl)=C(c1ccc(Cl)cc1)c1ccc(Cl)cc1 showed concentration at 671.96 h equal to 2.8

====

Assay: in vivo
Details: female, New Zealand white (INRA 1777 line), rabbit, in vivo, po, Serum concentration
Measurement label: concentration at 23.98 h (nM)
Give bare numbers, in nM.

- Molecular string: "ClC(Cl)=C(c1ccc(Cl)cc1)c1ccc(Cl)cc1"
  Measurement label: "concentration at 23.98 h"
  Recorded result: 250

# input for lookup
The compound Clc1c(Cl)c(Cl)c(Cl)c(Cl)c1Cl showed concentration at 23.98 h equal to 370

====

Please go through the items and note down their concentration at 0.77 h.
Assay: in vivo
Conditions: female, New Zealand white, rabbit, in vivo, iv, Serum concentration
Give bare numbers, in µM.

- Molecular string: "ClC(Cl)=C(c1ccc(Cl)cc1)c1ccc(Cl)cc1"
  concentration at 0.77 h [µM]: 0.64

# input for lookup
The compound Clc1c(Cl)c(Cl)c(Cl)c(Cl)c1Cl showed concentration at 0.77 h equal to 0.015

====

Experiment: TK assay, oral mixture dosing: serum concentrations and noncompartmental analysis (sparse data)
Conditions: female, New Zealand white, rabbit, in vivo, po, Serum concentration, rabbit 20, 168.00 h
Please go through the items and note down their concentration at 168 h.
Answers are plain numbers, in nM.

- Molecular string: "Brc1ccc(Oc2ccc(Br)cc2Br)c(Br)c1"
  Units symbol: "nM"
  concentration at 168 h: 120
- Molecular string: "Cl[C@H]1[C@H](Cl)[C@@H](Cl)[C@H](Cl)[C@@H](Cl)[C@@H]1Cl"
  Units symbol: "nM"
  concentration at 168 h: 89

# input for lookup
The compound O=C(O)C(F)(F)C(F)(F)C(F)(F)C(F)(F)C(F)(F)C(F)(F)C(F)(F)F showed concentration at 168 h equal to 5

====

Test: TK assay, oral mixture dosing: serum concentrations and noncompartmental analysis (sparse data)
Conditions: female, New Zealand white, rabbit, in vivo, po, Serum concentration, rabbit 19, 168.02 h
Measurement label: concentration at 168.02 h (nM)
Answers are plain numbers, in nM.

// known answers, use as guide
- Molecular string: "Brc1ccc(Oc2ccc(Br)cc2Br)c(Br)c1"
  concentration at 168.02 h, nM: 92
- Molecular string: "O=C(O)C(F)(F)C(F)(F)C(F)(F)C(F)(F)C(F)(F)C(F)(F)C(F)(F)F"
  concentration at 168.02 h, nM: 32

The compound Cl[C@H]1[C@H](Cl)[C@@H](Cl)[C@H](Cl)[C@@H](Cl)[C@@H]1Cl showed concentration at 168.02 h equal to 88

====

Experiment: TK assay, intravenous mixture dosing: serum concentrations and noncompartmental analysis (sparse data)
Settings: female, New Zealand white, rabbit, in vivo, iv, Serum concentration, rabbit 7, 11.98 h
Measurement label: concentration at 11.98 h (nM)
Numbers only, in nM.

The compound O=C(O)C(F)(F)C(F)(F)C(F)(F)C(F)(F)C(F)(F)C(F)(F)C(F)(F)F [PFOA, perfluorooctanoic acid] showed concentration at 11.98 h equal to 840
